Target: T1, B7-H3 on tumour cells (MDA-MB-468 cells, N87 cells) (UniProt Q5ZPR3 29-534, limits assumed)
T1 construct: whole, on cells
T1 sequence (looked up): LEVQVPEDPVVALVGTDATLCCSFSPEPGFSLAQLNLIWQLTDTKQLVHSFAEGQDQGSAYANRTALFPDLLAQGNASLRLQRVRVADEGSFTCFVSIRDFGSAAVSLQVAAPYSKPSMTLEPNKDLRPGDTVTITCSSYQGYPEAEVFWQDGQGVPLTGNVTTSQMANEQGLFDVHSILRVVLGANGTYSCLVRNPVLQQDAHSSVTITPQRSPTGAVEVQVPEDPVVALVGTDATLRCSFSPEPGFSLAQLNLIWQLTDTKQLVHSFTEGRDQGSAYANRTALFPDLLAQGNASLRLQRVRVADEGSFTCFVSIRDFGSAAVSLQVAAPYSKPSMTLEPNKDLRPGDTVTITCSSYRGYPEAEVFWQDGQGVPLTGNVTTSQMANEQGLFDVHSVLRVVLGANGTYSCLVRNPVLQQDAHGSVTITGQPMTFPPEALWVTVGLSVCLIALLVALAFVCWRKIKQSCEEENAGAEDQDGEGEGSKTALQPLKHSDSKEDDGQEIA
Experiment: flow cytometry on MDA-MB-468 cells, PE goat anti-human IgG Fc secondary; blank 0.9% in the positive gate
Readout: % of cells in positive gate V1-R at 1.23 nM (%)
I only need the number, in %, no unit after it.

antibody V3 (antibody, human IgG1, kappa, V domains shown, Humanized from chimeric antibody M1; expressed in HEK293F cells; also called humanized antibody V3) VH: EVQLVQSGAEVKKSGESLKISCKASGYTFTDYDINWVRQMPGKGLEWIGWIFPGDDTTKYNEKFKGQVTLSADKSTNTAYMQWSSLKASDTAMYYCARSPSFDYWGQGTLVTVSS VL: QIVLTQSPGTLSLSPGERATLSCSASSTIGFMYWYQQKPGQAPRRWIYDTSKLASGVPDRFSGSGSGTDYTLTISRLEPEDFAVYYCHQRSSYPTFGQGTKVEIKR    86.4
antibody M1 (antibody, human IgG1, kappa, V domains shown, Chimeric antibody, murine variable regions on the IgG1 constant region; expressed in HEK293F cells; also called chimeric antibody M1) VH: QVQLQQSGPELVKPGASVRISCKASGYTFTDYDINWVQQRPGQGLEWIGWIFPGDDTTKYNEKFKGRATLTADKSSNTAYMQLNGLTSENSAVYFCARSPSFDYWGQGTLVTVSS VL: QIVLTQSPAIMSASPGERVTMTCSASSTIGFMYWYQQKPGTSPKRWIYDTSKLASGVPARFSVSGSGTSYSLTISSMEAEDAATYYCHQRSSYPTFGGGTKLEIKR    93.1

Here's the next entry for you.
Which % of cells in positive gate V1-R at 1.23 nM reading was recorded for the binder antibody V5 (antibody, human IgG1, kappa, V domains shown, Humanized from chimeric antibody M1; expressed in HEK293F cells; also called humanized antibody V5) VH: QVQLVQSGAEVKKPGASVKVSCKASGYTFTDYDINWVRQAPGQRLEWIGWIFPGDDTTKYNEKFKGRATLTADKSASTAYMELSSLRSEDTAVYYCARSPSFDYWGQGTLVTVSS VL: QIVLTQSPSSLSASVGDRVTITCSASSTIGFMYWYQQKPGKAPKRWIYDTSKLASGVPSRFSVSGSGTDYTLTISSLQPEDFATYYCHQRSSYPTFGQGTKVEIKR ?
73.5

Source listed as patent US20240400690A1.
